List of inhibition of SARS-CoV-2 cytopathic effect values.
- Test system: Vero E6 infected with SARS-CoV-2
- test method notes: inhibition of SARS-CoV-2 cytopathic effect; higher = more antiviral protection, active = above 15
- condition summary: 1 nM; 48 h
Your answer should be a plain number; it is taken to be in %.

Exercise: Request body: readout inhibition of SARS-CoV-2 cytopathic effect, system Vero E6 infected with SARS-CoV-2, query CC(=O)Oc1cc(C(F)(F)F)ccc1C(=O)O . Return the value.
Solution: -0.9

Exercise: # returns recorded inhibition of SARS-CoV-2 cytopathic effect (system: Vero E6 infected with SARS-CoV-2) for O=C(c1ccc(-c2ccc(Cl)cc2)o1)N(Cc1ccccn1)c1ccc(N2CCNCC2)cc1
Solution: -2.64

Exercise: Lab note: need inhibition of SARS-CoV-2 cytopathic effect with Vero E6 infected with SARS-CoV-2 for entry CN1C(CCl)Nc2cc(Cl)c(S(N)(=O)=O)cc2S1(=O)=O (stereo not drawn) [methyclothiazide] , please look it up.
Solution: -0.11

***
Exercise: Form entry - test system: Vero E6 infected with SARS-CoV-2; read-out: inhibition of SARS-CoV-2 cytopathic effect; molecule: C/C(=C\C(N)C(=O)O)CP(=O)(O)O (stereo not drawn)
Solution: -2.33

Exercise: Request: inhibition of SARS-CoV-2 cytopathic effect, test system Vero E6 infected with SARS-CoV-2, entry COc1ccc(CN(CCN(C)C)c2ccccn2)cc1
Solution: -3.35

Exercise: Missing value: inhibition of SARS-CoV-2 cytopathic effect, Vero E6 infected with SARS-CoV-2, entry Cc1ccc(NC(=O)C(C)C)cc1C1CCN(Cc2ccc(Oc3ccc(F)c(F)c3)cc2)CC1 . Fill in?
Solution: -0.1

Exercise: Item COC(=O)N[C@H](C(=O)N1CCC[C@H]1c1ncc(-c2ccc(-c3ccc(-c4cnc([C@@H]5CCCN5C(=O)[C@@H](NC(=O)OC)C(C)C)[nH]4)cc3)cc2)[nH]1)C(C)C with Vero E6 infected with SARS-CoV-2 - inhibition of SARS-CoV-2 cytopathic effect?
Solution: -1.73

Exercise: Form: Entry = c1ccc(-c2n[nH]cc2-c2ccnc3ccccc23)nc1 | System = Vero E6 infected with SARS-CoV-2 | inhibition of SARS-CoV-2 cytopathic effect = ____
Solution: 1.81

Exercise: Give Vero E6 infected with SARS-CoV-2 inhibition of SARS-CoV-2 cytopathic effect for CC(C)(C)c1ccc(S(=O)(=O)/C=C/C#N)cc1
Solution: 2.15

Exercise: Entry CC(C)NCC(O)COc1cccc2[nH]c3ccccc3c12 (stereo not drawn) , system Vero E6 infected with SARS-CoV-2: what inhibition of SARS-CoV-2 cytopathic effect was measured?
Solution: 1.76

Exercise: Provide value of inhibition of SARS-CoV-2 cytopathic effect for this record tested with Vero E6 infected with SARS-CoV-2: NC(N)=Nc1nc(CSCCN/C=N/S(=O)(=O)c2ccc(Br)cc2)cs1
Solution: -0.49

Exercise: inhibition of SARS-CoV-2 cytopathic effect of Cc1ccc(-n2sc(=O)n(Cc3ccc(F)cc3)c2=O)cc1 on Vero E6 infected with SARS-CoV-2?
Solution: 1.81

====

- Test system: Vero E6 infected with SARS-CoV-2
- test method notes: inhibition of SARS-CoV-2 cytopathic effect; higher = more antiviral protection, active = above 15
- condition summary: 833.33 nM; 48 h
inhibition of SARS-CoV-2 cytopathic effect values, listed per item
The reply should contain only the number, in %.

Exercise: Report inhibition of SARS-CoV-2 cytopathic effect for C=C[C@@H]1C[C@]1(NC(=O)[C@@H]1C[C@@H]2CN1C(=O)[C@H](C(C)(C)C)NC(=O)O[C@@H]1C[C@H]1CCCCCc1nc3ccc(OC)cc3nc1O2)C(=O)NS(=O)(=O)C1CC1 [grazoprevir] please.
Solution: 1.78

Exercise: Please look up its inhibition of SARS-CoV-2 cytopathic effect: NC(=O)C1=CN([C@@H]2O[C@H](COP(=O)(O)OP(=O)(O)OC[C@H]3O[C@@H](n4cnc5c(N)ncnc54)[C@H](OP(=O)(O)O)[C@@H]3O)[C@@H](O)[C@H]2O)C=CC1
Solution: 0.8

Exercise: # inhibition of SARS-CoV-2 cytopathic effect lookup, item CCCCOC(=O)c1cc2c(cn1)[nH]c1ccccc12 [beta-CCB]
Solution: -2.91

Exercise: // query inhibition of SARS-CoV-2 cytopathic effect value for entry CC(=O)OCC(=O)[C@@]1(O)CC[C@H]2[C@@H]3CCC4=CC(=O)CC[C@]4(C)[C@H]3C(=O)C[C@@]21C [cortisone-acetate]
Solution: 0.49

Exercise: Given the entry C[C@@]1(C(=O)O)NCCc2cc(O)c(O)cc21 [salsolinol-1-carboxylic-acid] , report its measured inhibition of SARS-CoV-2 cytopathic effect.
Solution: 2.45

Exercise: Which inhibition of SARS-CoV-2 cytopathic effect is listed for N#Cc1cnc2c(Cl)cc(NCc3cn(CCN4CCCCCC4)nn3)cc2c1Nc1ccc(F)c(Cl)c1 [cot-inhibitor-1] ?
Solution: -2.18

Others:
Exercise: // lookup inhibition of SARS-CoV-2 cytopathic effect for O=C1NC(c2cccc([N+](=O)[O-])c2)=CCN1c1ccccc1O [icilin]
Solution: 0.66

Exercise: Value lookup for inhibition of SARS-CoV-2 cytopathic effect; key = CCCC(=O)O[C@]1(C(=O)COC(C)=O)CC[C@H]2[C@@H]3C[C@H](F)C4=CC(=O)C=C[C@]4(C)[C@@]3(F)[C@@H](O)C[C@@]21C [difluprednate]
Solution: 1.03

Exercise: Suppose we examine the compound CC[C@H]1[C@@H](O)[C@@H]2[C@H](CC[C@]3(C)[C@@H]([C@H](C)CCC(=O)O)CC[C@@H]23)[C@@]2(C)CC[C@@H](O)C[C@@H]12 [obeticholic-acid] ; what inhibition of SARS-CoV-2 cytopathic effect value has been reported?
Solution: 2.73

Exercise: Which inhibition of SARS-CoV-2 cytopathic effect reading was recorded for the compound COc1cccc(N2CCN(C3=Nc4c(F)cccc4[C@H](CC(=O)O)N3c3cc(C(F)(F)F)ccc3OC)CC2)c1 [letermovir] ?
Solution: 0.96

Exercise: Give the measured inhibition of SARS-CoV-2 cytopathic effect of CC(C)Cc1ccc(C(C)C(=O)NO)cc1 (stereo not drawn) [ibuproxam] .
Solution: 2.87
